Assay: Metabolic stability in rat liver microsomes at 0.5 uM
Type: ADME, Microsome
Examples of compounds with documented microsomal CLint at 0.5 µM follow.
assay readout: microsomal CLint at 0.5 µM (µL/min/mg)

* COc1cc(N2CCOCC2)ccc1NC(=O)c1cccc(-c2ccn[nH]2)n1 | 51
* COc1cc(N2CCN(C)CC2)ccc1NC(=O)c1cccc(-c2cnn(C)c2)n1 | 9
